The reported measurements were obtained from patent US7829587B2.

Can you tell me Relative efficacy FLIPR α2A for the items I'm about to list?
Target: human α2A receptor (Homo sapiens)
Construct: expressed in transfected cells; host or cells: HEK 293
Sequence (P08913 1-465): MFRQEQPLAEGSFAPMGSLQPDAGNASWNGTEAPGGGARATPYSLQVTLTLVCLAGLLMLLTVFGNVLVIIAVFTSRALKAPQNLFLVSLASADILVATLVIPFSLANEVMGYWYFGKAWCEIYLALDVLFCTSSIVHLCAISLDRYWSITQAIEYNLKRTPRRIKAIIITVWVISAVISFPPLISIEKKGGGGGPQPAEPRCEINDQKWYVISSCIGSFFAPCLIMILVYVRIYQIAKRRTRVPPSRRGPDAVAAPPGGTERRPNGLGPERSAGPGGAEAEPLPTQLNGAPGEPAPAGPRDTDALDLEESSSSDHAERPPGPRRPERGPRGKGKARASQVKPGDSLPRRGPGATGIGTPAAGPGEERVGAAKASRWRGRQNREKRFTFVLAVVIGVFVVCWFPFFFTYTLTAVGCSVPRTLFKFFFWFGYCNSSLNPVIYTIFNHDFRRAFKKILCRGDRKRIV
Assay: FLIPR Ca+2 influx assay, α2A
Format: cell-based
Details: relative efficacy compared to standard full agonist norepinephrine; HEK 293, human α2A/Gqi5
Please respond with just the number, no unit label.

Query block: Report its Relative efficacy FLIPR α2A with human α2A receptor (Homo sapiens) as the test system: CCN(Cc1ccccn1)C1CCc2cccc(OC)c2C1 (centres unmarked)
Result block: 0

Query block: Report its Relative efficacy FLIPR α2A with human α2A receptor (Homo sapiens) as the test system: CCCN(Cc1cccnc1)C1CCc2cccc(OC)c2C1 (centres unmarked)
Result block: 0

Query block: Report its Relative efficacy FLIPR α2A with human α2A receptor (Homo sapiens) as the test system: CCN(Cc1cccnc1)C1CCc2cccc(O)c2C1 (centres unmarked)
Result block: 0.35

Query block: Report its Relative efficacy FLIPR α2A with human α2A receptor (Homo sapiens) as the test system: CCCN(Cc1ccccn1)C1CCc2cccc(OC)c2C1 (centres unmarked)
Result block: 0

Query block: Report its Relative efficacy FLIPR α2A with human α2A receptor (Homo sapiens) as the test system: CCCN(Cc1ccncc1)C1CCc2cccc(OC)c2C1 (centres unmarked)
Result block: 0.22

Query block: Report its Relative efficacy FLIPR α2A with human α2A receptor (Homo sapiens) as the test system: CCN(Cc1ccccn1)C1CCc2cccc(O)c2C1 (centres unmarked)
Result block: 0

Query block: Report its Relative efficacy FLIPR α2A with human α2A receptor (Homo sapiens) as the test system: CCCN(Cc1ccncc1)C1CCc2cccc(O)c2C1 (centres unmarked)
Result block: 0

Query block: Report its Relative efficacy FLIPR α2A with human α2A receptor (Homo sapiens) as the test system: CCN(Cc1ccncc1)C1CCc2cccc(OC)c2C1 (centres unmarked)
Result block: 0.74

Query block: Report its Relative efficacy FLIPR α2A with human α2A receptor (Homo sapiens) as the test system: CCCN(Cc1ccccn1)C1CCc2cccc(O)c2C1 (centres unmarked) [drawing 21]
Result block: 0

Query block: Report its Relative efficacy FLIPR α2A with human α2A receptor (Homo sapiens) as the test system: "CCCN(Cc1ccncc1)[C@@H]1CCc2cccc(O)c2C1"
Result block: 0

Query block: Report its Relative efficacy FLIPR α2A with human α2A receptor (Homo sapiens) as the test system: CCN(Cc1ccncc1)C1CCc2cccc(O)c2C1 (centres unmarked)
Result block: 0.16

Query block: Report its Relative efficacy FLIPR α2A with human α2A receptor (Homo sapiens) as the test system: CCN(Cc1cccnc1)C1CCc2cccc(OC)c2C1 (centres unmarked)
Result block: 0.51

Query block: Report its Relative efficacy FLIPR α2A with human α2A receptor (Homo sapiens) as the test system: CCCN(Cc1ccccn1)C1CCc2cccc(O)c2C1 (centres unmarked) [drawing 20]
Result block: 0

Query block: Report its Relative efficacy FLIPR α2A with human α2A receptor (Homo sapiens) as the test system: "CCCN(Cc1ccncc1)[C@@H]1CCc2cccc(OC)c2C1"
Result block: 0.34
